TARGET_SYSTEM: BaF3 (EGFR Del19/C797S) (Homo sapiens, UniProt P00533, C797S, cells depend on it, form not given)
Construct: BaF3 (EGFR Del19/C797S)|DC|RPMI1640 + 10% FBS
Sequence (P00533 with tags, fused parts or gaps DEL746-750/C797S, form open): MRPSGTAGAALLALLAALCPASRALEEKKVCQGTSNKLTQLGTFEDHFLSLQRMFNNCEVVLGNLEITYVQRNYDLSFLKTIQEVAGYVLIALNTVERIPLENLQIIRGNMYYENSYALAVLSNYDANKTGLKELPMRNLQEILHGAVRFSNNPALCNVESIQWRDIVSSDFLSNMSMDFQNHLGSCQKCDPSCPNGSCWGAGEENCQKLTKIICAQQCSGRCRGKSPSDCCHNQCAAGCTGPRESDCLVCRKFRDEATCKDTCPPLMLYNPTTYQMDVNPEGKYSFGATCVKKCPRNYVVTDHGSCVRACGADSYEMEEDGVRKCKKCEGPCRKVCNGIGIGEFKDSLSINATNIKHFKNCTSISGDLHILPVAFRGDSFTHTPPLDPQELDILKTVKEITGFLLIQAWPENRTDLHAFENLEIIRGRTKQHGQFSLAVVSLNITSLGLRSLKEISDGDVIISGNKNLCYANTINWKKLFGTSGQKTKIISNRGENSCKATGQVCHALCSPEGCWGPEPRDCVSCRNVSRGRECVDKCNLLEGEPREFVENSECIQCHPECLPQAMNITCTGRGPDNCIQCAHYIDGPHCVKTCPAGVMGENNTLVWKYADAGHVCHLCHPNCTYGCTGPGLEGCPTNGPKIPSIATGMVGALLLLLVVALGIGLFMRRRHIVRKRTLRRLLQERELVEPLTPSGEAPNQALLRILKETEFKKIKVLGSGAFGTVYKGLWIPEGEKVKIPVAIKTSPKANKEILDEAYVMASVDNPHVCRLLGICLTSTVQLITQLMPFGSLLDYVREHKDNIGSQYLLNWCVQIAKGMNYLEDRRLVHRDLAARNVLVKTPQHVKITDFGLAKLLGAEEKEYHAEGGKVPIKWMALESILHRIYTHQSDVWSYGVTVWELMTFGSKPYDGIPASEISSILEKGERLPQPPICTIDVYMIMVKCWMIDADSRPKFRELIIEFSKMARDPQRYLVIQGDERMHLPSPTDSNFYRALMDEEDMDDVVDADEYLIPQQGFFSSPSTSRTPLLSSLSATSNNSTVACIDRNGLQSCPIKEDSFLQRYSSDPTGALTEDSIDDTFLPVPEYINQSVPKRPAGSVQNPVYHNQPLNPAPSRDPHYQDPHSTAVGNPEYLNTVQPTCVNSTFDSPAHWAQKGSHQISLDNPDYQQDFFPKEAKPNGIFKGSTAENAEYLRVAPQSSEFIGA
TEST_PROTOCOL: Cell proliferation IC50 assay (Cell Titer GLO), BaF3 DC cells
Type: cell-based, mouse
CONDITION_DESCRIPTION: Table 6, 72 h
OBSERVATION_TYPE: pIC50
// scale note: pIC50 = -log10(conc_M); give the bare number

## Input I am curious: what pIC50 value has been reported for CCc1cc(Nc2ncc(Cl)c(Nc3ccccc3P(C)(C)=O)n2)c(Cl)cc1N1CCC(N2CCN(CCC#Cc3cccc4c3CN(C3CCC(=O)NC3=O)C4=O)CC2)CC1 (centres unmarked) ?
## Output 8.04

## Input I am curious: what pIC50 value has been reported for CCc1cc(Nc2ncc(Cl)c(Nc3ccccc3P(C)(C)=O)n2)c(OC)cc1N1CCC(N2C[C@@H](C)N(CCCCOc3cccc4c3CN(C3CCC(=O)NC3=O)C4=O)[C@@H](C)C2)CC1 (some centres unmarked) ?
## Output 8.48

## Input I am curious: what pIC50 value has been reported for CCc1cc(Nc2ncc(Cl)c(Nc3ccccc3P(C)(C)=O)n2)c(OC)cc1N1CCC(N2CCN([C@H]3C[C@H](Oc4ccc5c(c4)CN(C4CCC(=O)NC4=O)C5=O)C3)CC2)CC1 (some centres unmarked) ?
## Output 8.51

## Input I am curious: what pIC50 value has been reported for COc1cc(N2CCC(N3CCN(CCC#Cc4cccc5c4CN(C4CCC(=O)NC4=O)C5=O)CC3)CC2)c(CC#N)cc1Nc1ncc(Cl)c(Nc2ccccc2P(C)(C)=O)n1 (centres unmarked) ?
## Output 8.62

## Input I am curious: what pIC50 value has been reported for COc1cc(N2CCC(N3CCN(CCC#Cc4cccc5c4CN(C4CCC(=O)NC4=O)C5=O)CC3)CC2)c(C)cc1Nc1ncc(Br)c(Nc2ccc3c(c2P(C)(C)=O)OCCO3)n1 (centres unmarked) ?
## Output 8.18
